# IRAK4 (Homo sapiens (Human)): pIC50 values follow
# Sequence (Q9NWZ3 whole entry): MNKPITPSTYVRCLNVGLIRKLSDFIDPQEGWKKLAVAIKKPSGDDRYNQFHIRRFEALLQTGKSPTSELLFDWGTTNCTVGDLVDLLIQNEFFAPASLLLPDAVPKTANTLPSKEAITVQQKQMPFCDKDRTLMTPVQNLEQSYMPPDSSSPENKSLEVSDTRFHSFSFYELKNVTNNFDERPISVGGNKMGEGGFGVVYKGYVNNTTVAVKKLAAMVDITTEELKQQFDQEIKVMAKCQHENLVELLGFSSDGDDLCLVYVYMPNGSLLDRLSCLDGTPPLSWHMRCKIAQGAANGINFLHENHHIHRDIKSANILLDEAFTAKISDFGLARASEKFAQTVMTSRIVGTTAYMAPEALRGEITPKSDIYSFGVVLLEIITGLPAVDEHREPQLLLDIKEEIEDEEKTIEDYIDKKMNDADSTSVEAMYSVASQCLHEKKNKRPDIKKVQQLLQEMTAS
pIC50: −log10 of the molar value.
PROPERTY_NAME: pIC50

INSERT INTO results (compound, property_name, measurement) VALUES
  ('Cn1cc(-c2cccc(-c3ncc(-c4cnn(C)c4)c(NC45CC(N)(C4)C5)n3)c2)cn1', 'pIC50', '> 7.00'),
  ('Cn1cc(-c2cccc(-c3ncc(-c4cnn(C)c4)c(NCCC4CCNC4)n3)c2)cn1 (stereo not shown)', 'pIC50', '6.00 to 7.00'),
  ('Cn1cc(-c2cccc(-c3ncc(-c4cnn(C)c4)c(N[C@H]4CC[C@@H](N5CCOCC5)CC4)n3)c2)cn1', 'pIC50', '5.30 to 6.00'),
  ('Cn1cc(-c2cccc(-c3ncc(-c4cnn(C)c4)c(N[C@H]4CC[C@H](C(=O)O)CC4)n3)c2)cn1', 'pIC50', '6.00 to 7.00'),
  ('Cn1cc(-c2cccc(-c3ncc(-c4ccn(C)n4)c(NC4CC(O)C4)n3)c2)cn1 (stereo not shown)', 'pIC50', '6.00 to 7.00'),
  ('Cn1cc(-c2cccc(-c3ncc(-c4cnn(C)c4)c(NCCC4CCN(S(C)(=O)=O)C4)n3)c2)cn1 (stereo not shown)', 'pIC50', '6.00 to 7.00'),
  ('Cc1nnc(-c2cnc(-c3cccc(-c4cnn(C)c4)c3)nc2NCC2CN(S(C)(=O)=O)C2)s1', 'pIC50', '> 7.00');

====

target: IRAK1 (His-TEV-IRAK1 (194-712)) (Homo sapiens (Human), UniProt P51617)
Sequence (P51617 194-712): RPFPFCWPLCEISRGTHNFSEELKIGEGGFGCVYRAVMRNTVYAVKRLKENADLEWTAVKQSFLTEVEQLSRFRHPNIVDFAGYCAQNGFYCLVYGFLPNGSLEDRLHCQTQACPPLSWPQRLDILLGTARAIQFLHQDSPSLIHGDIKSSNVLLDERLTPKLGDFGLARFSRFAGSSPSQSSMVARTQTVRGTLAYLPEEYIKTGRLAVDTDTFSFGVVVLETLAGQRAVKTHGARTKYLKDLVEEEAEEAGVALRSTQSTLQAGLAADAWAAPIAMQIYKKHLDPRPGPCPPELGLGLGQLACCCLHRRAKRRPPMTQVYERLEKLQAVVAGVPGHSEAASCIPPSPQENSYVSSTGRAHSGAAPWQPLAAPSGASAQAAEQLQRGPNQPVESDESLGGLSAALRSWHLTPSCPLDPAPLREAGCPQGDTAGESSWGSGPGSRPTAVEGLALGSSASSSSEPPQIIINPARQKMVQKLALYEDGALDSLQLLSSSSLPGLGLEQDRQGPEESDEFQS
Structures can show the parent of a compound that is named as a salt.
Entries and their IC50 values follow.
PROPERTY_NAME: IC50

INSERT INTO assay_data (compound, measurement) VALUES
  ('Cc1nnc(-c2cnc(-c3cccc(-c4cnn(C)c4)c3)nc2NC2CCS(=O)(=O)CC2)s1', '1000 to 5000 nM'),
  ('Cn1cc(-c2cccc(-c3ncc(-c4ccn(C)n4)c(NCC4CCNC4)n3)c2)cn1 (stereo not drawn)', '> 5000 nM'),
  ('Cn1cc(-c2cccc(-c3ncc(-c4cnn(C)c4)c(N[C@H]4CCC[C@H](O)C4)n3)c2)cn1 (racemic)', '100 to 1000 nM'),
  ('COC(=O)c1nnc(-c2cnc(-c3cccc(-c4cnn(C)c4)c3)nc2NCC2CNC2)s1 [Example 19, Trifluoroacetate]', '> 5000 nM'),
  ('Cn1cc(-c2cccc(-c3ncc(-c4cnn(C)c4)c(N4CCC(CCO)C4)n3)c2)cn1 (stereo not drawn)', '> 5000 nM'),
  ('Cn1cc(-c2cccc(-c3ncc(-c4cnn(C)c4)c(NC4CCOC4)n3)c2)cn1 (stereo not drawn)', '100 to 1000 nM'),
  ('Cn1cc(-c2cccc(-c3ncc(-c4ccn(C)n4)c(NC4CC5(CC(N)C5)C4)n3)c2)cn1 (stereo not drawn)', '1000 to 5000 nM'),
  ('Cn1cc(-c2cccc(-c3ncc(-c4cnn(C)c4)c(NCC4CCCC4N)n3)c2)cn1 (stereo not drawn)', '1000 to 5000 nM'),
  ('Cn1cc(-c2cccc(-c3ncc(-c4cnn(C)c4)c(NCc4ccncc4)n3)c2)cn1', '1000 to 5000 nM'),
  ('Cn1cc(-c2cccc(-c3ncc(-c4cnn(C)c4)c(NC(C)(C)C)n3)c2)cn1', '100 to 1000 nM'),
  ('COC(=O)c1nnc(-c2cnc(-c3cccc(-c4cnn(C)c4)c3)nc2NC2CCCNC2)s1 (stereo not drawn) [Example 18, Hydrochloride]', '> 5000 nM'),
  ('CC(=O)NCC1CCC(Nc2nc(-c3cccc(-c4cnn(C)c4)c3)ncc2-c2cnn(C)c2)CC1 (stereo not drawn)', '1000 to 5000 nM'),
  ('Cn1cc(-c2cccc(-c3ncc(-c4cnn(C)c4)c(NC4CC5(CC(N)C5)C4)n3)c2)cn1 (stereo not drawn)', '100 to 1000 nM'),
  ('Cn1cc(-c2cccc(-c3ncc(-c4cnn(C)c4)c(NCC4CN(S(C)(=O)=O)CCO4)n3)c2)cn1 (stereo not drawn)', '100 to 1000 nM'),
  ('Cn1cc(-c2cccc(-c3ncc(-c4cnn(C)c4)c(N[C@H]4C[C@H](N)C4)n3)c2)cn1', '> 5000 nM'),
  ('Cn1cc(-c2cccc(-c3ncc(-c4cnn(C)c4)c(NCC4CCNCC4F)n3)c2)cn1 (stereo not drawn)', '> 5000 nM'),
  ('Cn1cc(-c2cccc(-c3ncc(-c4cnn(C)c4)c(N[C@H]4CC[C@@H](N5CCOCC5)CC4)n3)c2)cn1 [Example 233]', '100 to 1000 nM'),
  ('Cn1cc(-c2cccc(-c3ncc(-c4cnn(C)c4)c(NC4CCC5CNCC54)n3)c2)cn1 (stereo not drawn)', '> 5000 nM'),
  ('CN(CC1CC(F)(F)C1)c1nc(-c2cccc(-c3cnn(C)c3)c2)ncc1-c1ccn(C)n1', '> 5000 nM'),
  ('Cn1cc(-c2cccc(-c3ncc(-c4cnn(C)c4)c(NC4CC(CN)C4)n3)c2)cn1 (stereo not drawn)', '< 100 nM'),
  ('Cn1cc(-c2cccc(-c3ncc(-c4cnn([C@H]5CC[C@]6(CCC(=O)N6C)CC5)c4)c(NCC4CCNCC4)n3)c2)cn1 [Example 86, Hydrochloride]', '1000 to 5000 nM'),
  ('Cn1cc(-c2cccc(-c3ncc(-c4cnn(C)c4)c(N4CCC(N)CC4)n3)c2)cn1', '100 to 1000 nM'),
  ('CC(=O)NC12CC(Nc3nc(-c4cccc(-c5cnn(C)c5)c4)ncc3-c3cnn(C)c3)(C1)C2', '< 100 nM'),
  ('Cn1cc(-c2cccc(-c3ncc(-c4cnn(C)c4)c(NCC4CC4)n3)c2)cn1', '100 to 1000 nM'),
  ('Cn1cc(-c2cccc(-c3ncc(-c4cnn(C)c4)c(NCCN4CCOC4=O)n3)c2)cn1', '1000 to 5000 nM'),
  ('Cn1cc(-c2cccc(-c3ncc(-c4cnn(C)c4)c(NC4CC4)n3)c2)cn1', '100 to 1000 nM'),
  ('Cn1cc(-c2cccc(-c3ncc(-c4ccn(C)n4)c(NCCO)n3)c2)cn1', '1000 to 5000 nM'),
  ('Cn1cc(-c2cccc(-c3ncc(-c4cnn(C)c4)c(NC4CCCCN(S(C)(=O)=O)C4)n3)c2)cn1 (stereo not drawn)', '100 to 1000 nM'),
  ('Cn1cc(-c2cccc(-c3ncc(-c4cnn(C)c4)c(NC4CCC(=O)NC4)n3)c2)cn1 (stereo not drawn)', '1000 to 5000 nM'),
  ('CC(C)Nc1cc(-c2cccc(-c3cnn(C)c3)n2)ncc1-c1nnc(C(=O)N2CC[C@@H](O)C2)s1', '100 to 1000 nM');
